- targetUnderTest: IRAK4 (Homo sapiens (Human), UniProt Q9NWZ3)
- Sequence (Q9NWZ3 whole entry, species assumed): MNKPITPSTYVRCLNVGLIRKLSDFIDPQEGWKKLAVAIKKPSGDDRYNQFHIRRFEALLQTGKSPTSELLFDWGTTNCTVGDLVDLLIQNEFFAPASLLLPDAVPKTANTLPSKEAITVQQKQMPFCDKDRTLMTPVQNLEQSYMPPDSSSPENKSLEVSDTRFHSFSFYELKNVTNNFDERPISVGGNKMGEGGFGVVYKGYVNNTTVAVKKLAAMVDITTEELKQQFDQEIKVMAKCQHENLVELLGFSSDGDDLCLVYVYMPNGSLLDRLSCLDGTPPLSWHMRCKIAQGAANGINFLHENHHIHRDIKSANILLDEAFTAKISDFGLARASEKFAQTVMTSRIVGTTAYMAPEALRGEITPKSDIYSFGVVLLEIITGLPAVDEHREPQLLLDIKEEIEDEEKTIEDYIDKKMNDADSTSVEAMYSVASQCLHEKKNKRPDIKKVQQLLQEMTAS
- procedureDetails: IRAK4 Inhibition Assay
- Assay type: biochemical
- runConditions: IRAK4 Inhibition Assay; ATP 500 μM; read-out: IRAK4 IC50
pIC50: −log10 of the molar value.
Recorded pIC50 values for a group of molecules are listed next.

>  <molecule>
CC(C)Nc1cc(-n2ncc3cc(C#N)cnc32)ncc1C(=O)NCCC(C)(F)F

>  <targetUnderTest>
IRAK4 (Homo sapiens (Human), UniProt Q9NWZ3)

>  <pIC50>
7.89

$$$$
>  <molecule>
CC(C)CCNC(=O)c1cnc(-n2ncc3cc(C#N)c(N)nc32)cc1NC(C)C

>  <targetUnderTest>
IRAK4 (Homo sapiens (Human), UniProt Q9NWZ3)

>  <pIC50>
8.46

$$$$
>  <molecule>
CC(C)CCNc1cc(-n2ccc3cc(C#N)cnc32)ncc1C(=O)NC[C@@H](F)C(C)(C)O

>  <targetUnderTest>
IRAK4 (Homo sapiens (Human), UniProt Q9NWZ3)

>  <pIC50>
8.49

$$$$
>  <molecule>
C[C@@H](CF)Nc1cc(-n2ccc3cc(C#N)cnc32)ncc1C(=O)NC[C@@H](F)C(C)(C)O

>  <targetUnderTest>
IRAK4 (Homo sapiens (Human), UniProt Q9NWZ3)

>  <pIC50>
8.62

$$$$
>  <molecule>
CC(F)[C@H](C)Nc1cc(-n2ncc3cc(C#N)cnc32)ncc1C(=O)NC[C@@H](F)C(C)(C)O (single isomer, unassigned) [Example 203]

>  <targetUnderTest>
IRAK4 (Homo sapiens (Human), UniProt Q9NWZ3)

>  <pIC50>
8.41

$$$$
>  <molecule>
CC(C)Nc1cc(-n2ccc3cc(C#N)cnc32)ncc1C(=O)N[C@H]1CC[C@H](O)CC1

>  <targetUnderTest>
IRAK4 (Homo sapiens (Human), UniProt Q9NWZ3)

>  <pIC50>
8.48

$$$$
>  <molecule>
CCn1cc(Nc2cc(-n3cnc4cc(Cl)cnc43)ncc2C(=O)NC[C@@H](F)C(C)(C)O)cn1

>  <targetUnderTest>
IRAK4 (Homo sapiens (Human), UniProt Q9NWZ3)

>  <pIC50>
8.54

$$$$
>  <molecule>
CC(=O)N[C@H]1CC[C@H](NC(=O)c2cnc(-n3ccc4cncnc43)cc2NC2CCOCC2)CC1

>  <targetUnderTest>
IRAK4 (Homo sapiens (Human), UniProt Q9NWZ3)

>  <pIC50>
8.31

$$$$
>  <molecule>
CC(C)Nc1cc(-n2ncc3cc(C#N)cnc32)ncc1C(=O)NCC(F)C1CCOCC1 (stereo not shown)

>  <targetUnderTest>
IRAK4 (Homo sapiens (Human), UniProt Q9NWZ3)

>  <pIC50>
8.31

$$$$
>  <molecule>
CC(=O)N[C@H]1CC[C@H](NC(=O)c2cnc(-n3ccc4cc(C#N)cnc43)cc2NC2CCOCC2)CC1

>  <targetUnderTest>
IRAK4 (Homo sapiens (Human), UniProt Q9NWZ3)

>  <pIC50>
8.15

$$$$

====

- targetUnderTest: IRAK4 (Homo sapiens (Human), UniProt Q9NWZ3)
- procedureDetails: IRAK4 Inhibition Assay
- Format: biochemical
- runConditions: IRAK4 Inhibition Assay; ATP 500 μM; read-out: IRAK4 IC50
Recorded IC50 values for a group of compounds are listed next.

>  <compound>
CC(C)(O)[C@H](F)CNC(=O)c1cnc(-n2ccc3cc(C#N)cnc32)cc1N[C@H]1CC[C@](C)(O)CC1

>  <targetUnderTest>
IRAK4 (Homo sapiens (Human), UniProt Q9NWZ3)

>  <IC50, nM>
3.6

$$$$
>  <compound>
CC(C)Nc1cc(-n2ncc3cc(C#N)cnc32)ncc1C(=O)NCCC1(O)CCN(C2COC2)CC1

>  <targetUnderTest>
IRAK4 (Homo sapiens (Human), UniProt Q9NWZ3)

>  <IC50, nM>
8.5

$$$$
>  <compound>
CC(C)Nc1cc(-n2ncc3cc(C#N)cnc32)ncc1C(=O)NCCC1CCOCC1

>  <targetUnderTest>
IRAK4 (Homo sapiens (Human), UniProt Q9NWZ3)

>  <IC50, nM>
4.5

$$$$
>  <compound>
CC(CF)Nc1cc(-n2ccc3cncnc32)ncc1C(=O)NC[C@@H](F)C(C)(C)O (stereo partly shown)

>  <targetUnderTest>
IRAK4 (Homo sapiens (Human), UniProt Q9NWZ3)

>  <IC50, nM>
1.9

$$$$

====

- System: TLR2 induced IL-6 in peripheral blood mononuclear cells (PBMCs)
- procedureDetails: PBMC TLR2 Induced IL-6 Assay
- Type: cell-based, human
- runConditions: Homo sapiens, PBMC, PBMC TLR2 Induced IL-6 Assay; lipoteichoic acid stimulation, IL-6 by ELISA; read-out: Cell IC50

>  <molecule>
CC(C)Nc1cc(-n2ncc3cc(C#N)cnc32)ncc1C(=O)NCCc1cccnc1

>  <IC50, nM>
380

$$$$
>  <molecule>
CC(C)Nc1cc(-n2ncc3cc(C#N)c(N)nc32)ncc1C(=O)N[C@H](C)C1CC1

>  <IC50, nM>
612

$$$$
>  <molecule>
CC(C)Nc1cc(-n2cnc3cc(C#N)cnc32)ncc1C(=O)NC[C@@H](F)C(C)(C)F

>  <IC50, nM>
423

$$$$
>  <molecule>
CCn1cc(Nc2cc(-n3cnc4cc(Cl)cnc43)ncc2C(=O)NC[C@@H](F)C(C)(C)O)cn1

>  <IC50, nM>
206

$$$$
>  <molecule>
CC(C)Nc1cc(-n2ncc3cc(C#N)cnc32)ncc1C(=O)NCC(F)C1CCOCC1 (stereo not shown)

>  <IC50, nM>
76

$$$$
>  <molecule>
CC(C)(CO)Nc1cc(-n2ncc3cc(C#N)cnc32)ncc1C(=O)NC[C@@H](F)C(C)(C)O

>  <IC50, nM>
1360

$$$$
>  <molecule>
CC(C)CCNC(=O)c1cnc(-n2ncc3cc(C#N)cnc32)cc1NC(C)C

>  <IC50, nM>
142

$$$$
>  <molecule>
CCNC(=O)n1cc(Nc2cc(-n3ncc4cc(C#N)cnc43)ncc2C(=O)NC[C@@H](F)C(C)(C)O)cn1

>  <IC50, nM>
1080

$$$$
>  <molecule>
CC(C)Nc1cc(-n2ccc3cc(C#N)ccc32)ncc1C(=O)NC[C@@H](F)C(C)(C)O

>  <IC50, nM>
873

$$$$
>  <molecule>
COC1CCC(O)(CCNC(=O)c2cnc(-n3ncc4cc(C#N)cnc43)cc2NC(C)C)CC1 (stereo not shown)

>  <IC50, nM>
349

$$$$
>  <molecule>
CC[C@H](C)Nc1cc(-n2ncc3cc(C#N)cnc32)ncc1C(=O)NC[C@@H](F)C(C)(C)O

>  <IC50, nM>
275

$$$$
>  <molecule>
CC(C)Nc1cc(-n2cnc3cnc(N)nc32)ncc1C(=O)NC[C@@H](F)C(C)(C)O

>  <IC50, nM>
587

$$$$
>  <molecule>
CC(C)(O)[C@H](F)CNC(=O)c1cnc(-n2ncc3cc(C#N)cnc32)cc1Nc1cnn(CCCF)c1

>  <IC50, nM>
61

$$$$
>  <molecule>
CC(C)Nc1cc(-n2ncc3cc(C#N)c(N)nc32)ncc1C(=O)NC1(C)CC1

>  <IC50, nM>
159

$$$$
>  <molecule>
CC(C)(O)[C@H](F)CNC(=O)c1cnc(-n2ccc3cc(C#N)cnc32)cc1Nc1cnn(CC(F)(F)F)c1

>  <IC50, nM>
45

$$$$
>  <molecule>
CC(C)Nc1cc(-n2ncc3cc(C#N)c(N)nc32)ncc1C(=O)NC1C=CCC1 (stereo not shown)

>  <IC50, nM>
181

$$$$
>  <molecule>
CC(C)(O)[C@H](F)CNC(=O)c1cnc(-n2ncc3cc(C#N)cnc32)cc1NC1CC1

>  <IC50, nM>
556

$$$$
>  <molecule>
CCn1cc(Nc2cc(-n3ncc4cc(C#N)cnc43)ncc2C(=O)NC[C@@H](F)C(C)(C)O)cn1

>  <IC50, nM>
122

$$$$
>  <molecule>
CC(C)(O)[C@H](F)CNC(=O)c1cnc(-n2ccc3cc(Cl)cnc32)cc1NC1CCC1

>  <IC50, nM>
1080

$$$$
>  <molecule>
CC(C)CCNC(=O)c1cnc(-n2ncc3cc(C#N)c(N)nc32)cc1NC(C)C

>  <IC50, nM>
176

$$$$
>  <molecule>
CC(C)(O)[C@H](F)CNC(=O)c1cnc(-n2ccc3cncnc32)cc1NC1CCOCC1

>  <IC50, nM>
175

$$$$
>  <molecule>
CC(C)(O)[C@H](F)CNC(=O)c1cnc(-n2ccc3cc(C#N)cnc32)cc1NC1CCOCC1F (single isomer, unassigned)

>  <IC50, nM>
896

$$$$
>  <molecule>
CC(C)Nc1cc(-n2ncc3cc(C#N)cnc32)ncc1C(=O)Nc1cnc(N2CCOCC2)nc1

>  <IC50, nM>
159

$$$$
>  <molecule>
CCn1cc(Nc2cc(-n3ncc4cc(Cl)cnc43)ncc2C(=O)NC[C@@H](F)C(C)(C)O)cn1

>  <IC50, nM>
67

$$$$
>  <molecule>
CC(C)(O)[C@H](F)CNC(=O)c1cnc(-n2ncc3cc(C#N)cnc32)cc1Nc1cnn(CC(F)F)c1

>  <IC50, nM>
146

$$$$
>  <molecule>
CC(C)(O)[C@H](F)CNC(=O)c1cnc(-n2ncc3cc(Cl)cnc32)cc1Nc1cnn(C2CCOCC2)c1

>  <IC50, nM>
170

$$$$
>  <molecule>
CC(C)(O)[C@H](F)CNC(=O)c1cnc(-n2ccc3cc(Cl)cnc32)cc1NC1CC1

>  <IC50, nM>
407

$$$$
>  <molecule>
COC1CCN(c2ccc(NC(=O)c3cnc(-n4ncc5cc(C#N)cnc54)cc3NC(C)C)nc2)CC1

>  <IC50, nM>
496

$$$$
>  <molecule>
CC(C)Nc1cc(-n2ncc3cc(Cl)cnc32)ncc1C(=O)NC[C@@H](F)C(C)(C)F

>  <IC50, nM>
512

$$$$
>  <molecule>
CC(C)Nc1cc(-n2ncc3cc(C#N)c(N)nc32)ncc1C(=O)NCCC1CC1

>  <IC50, nM>
252

$$$$
>  <molecule>
CC(C)Nc1cc(-n2cnc3cnc(NCCO)nc32)ncc1C(=O)NC[C@@H](F)C(C)(C)O

>  <IC50, nM>
10000

$$$$
